Assay read-out IC50; system under study: Dual specificity tyrosine-phosphorylation-regulated kinase 1A (Rattus norvegicus).
Numbers only, in nM.

Record IC50 for all entries; do not skip any.
1. O=C(O)c1nc2ccccc2nc1Nc1ccccc1O
2. O=C(O)c1nc2ccccc2nc1Nc1ccc(O)cc1
3. Nc1cccc(Nc2nc3ccccc3nc2C(=O)[O-])c1.[K+]

1. 740
2. 98
3. 1670

====

# tested on: Serine/threonine-protein kinase pim-1 (Homo sapiens)
# Sequence (P11309 whole entry): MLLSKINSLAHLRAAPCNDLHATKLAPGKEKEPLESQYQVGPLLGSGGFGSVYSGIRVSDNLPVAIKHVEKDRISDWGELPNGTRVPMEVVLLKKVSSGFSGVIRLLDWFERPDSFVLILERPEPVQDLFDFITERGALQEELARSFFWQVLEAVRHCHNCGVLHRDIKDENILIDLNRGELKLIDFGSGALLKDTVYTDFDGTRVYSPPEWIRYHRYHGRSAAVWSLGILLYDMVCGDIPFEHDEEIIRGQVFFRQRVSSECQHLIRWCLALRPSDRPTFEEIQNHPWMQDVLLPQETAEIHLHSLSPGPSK
# procedure summary: Inhibition of recombinant human Pim1 expressed in bacterial expression system using histone H1 as substrate after 30 mins by ADP-Glo reagent based luminescence assay
pIC50: −log10 of the molar value.
Please provide measured pIC50 for the entries that follow.

Worked cases, pIC50 given:
structure_smiles=CCOC(=O)c1nc2ccccc2nc1Nc1ccc(O)cc1 reported_value="< 5.00"
structure_smiles=CCOC(=O)c1nc2ccccc2nc1Nc1cccc(O)c1 reported_value="< 5.00"
structure_smiles=CCOC(=O)c1nc2ccccc2nc1Nc1ccccc1O reported_value="< 5.00"
structure_smiles=CCOC(=O)c1nc2ccccc2nc1Nc1ccc2[nH]ccc2c1 reported_value="< 5.00"
structure_smiles=NC(=O)c1nc2ccccc2nc1Nc1cccc(N2CCOCC2)c1 reported_value="< 5.00"

Provide the reported pIC50 of each entry below, same order.
1. CCOC(=O)c1nc2ccccc2nc1Nc1cccc(N)c1
2. Nc1cccc(Nc2nc3ccccc3nc2C(=O)[O-])c1.[K+]
3. O=C(O)c1nc2ccccc2nc1Nc1ccc(O)cc1
4. CCOC(=O)c1nc2ccccc2nc1Nc1cccc(N2CCOCC2)c1
5. CCOC(=O)c1nc2ccccc2nc1Nc1ccc(N)cc1

1. < 5.00
2. 5.55
3. 6.54
4. < 5.00
5. < 5.00

For each of the molecules below, state pIC50.
1. O=C(O)c1nc2ccccc2nc1Nc1cccc(N2CCOCC2)c1
2. CCOC(=O)c1nc2ccccc2nc1Nc1ccc(C2CCN(C)CC2)cc1
3. O=C(O)c1nc2ccccc2nc1Nc1ccccc1O
4. CN1CCC(c2ccc(Nc3nc4ccccc4nc3C(=O)O)cc2)CC1
5. Nc1ccc(Nc2nc3ccccc3nc2C(=O)O)cc1
6. O=C(O)c1nc2ccccc2nc1Nc1ccc2[nH]ccc2c1

6.00
< 5.00
6.12
< 5.00
< 5.00
< 5.00

src = ChEMBL document CHEMBL4152267
